Provenance of the data: patent US20260184693A1

molecular target: human SLC6A19 (Homo sapiens, UniProt Q695T7); construct: expressed in transfected cells; test: Example B2: 13C6,15N-isoleucine uptake, RapidFire mass spectrometry, in CHO cells with doxycycline-inducible expression of human SLC6A19 and TMEM27; format: cell-based; conditions: read-out: SLC6A19_RapidFire Uptake Assay IC50
Sequence (Q695T7 whole entry): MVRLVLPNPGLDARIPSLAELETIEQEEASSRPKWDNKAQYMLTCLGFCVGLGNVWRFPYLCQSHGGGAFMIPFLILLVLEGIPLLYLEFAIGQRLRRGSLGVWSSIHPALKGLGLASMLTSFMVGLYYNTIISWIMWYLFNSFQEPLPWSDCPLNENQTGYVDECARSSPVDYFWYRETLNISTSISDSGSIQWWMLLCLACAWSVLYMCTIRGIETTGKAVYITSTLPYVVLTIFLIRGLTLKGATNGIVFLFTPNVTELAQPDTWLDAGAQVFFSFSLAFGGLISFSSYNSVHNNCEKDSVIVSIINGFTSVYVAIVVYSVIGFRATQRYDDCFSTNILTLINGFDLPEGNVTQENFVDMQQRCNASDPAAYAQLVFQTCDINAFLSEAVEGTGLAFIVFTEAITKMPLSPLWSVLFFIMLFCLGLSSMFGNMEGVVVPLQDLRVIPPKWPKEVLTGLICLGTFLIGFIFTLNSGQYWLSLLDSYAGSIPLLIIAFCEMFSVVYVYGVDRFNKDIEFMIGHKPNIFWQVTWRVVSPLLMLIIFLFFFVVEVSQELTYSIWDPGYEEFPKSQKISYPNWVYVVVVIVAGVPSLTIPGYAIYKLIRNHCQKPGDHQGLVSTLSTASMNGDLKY
Sequence (Q9HBJ8 15-222 partner): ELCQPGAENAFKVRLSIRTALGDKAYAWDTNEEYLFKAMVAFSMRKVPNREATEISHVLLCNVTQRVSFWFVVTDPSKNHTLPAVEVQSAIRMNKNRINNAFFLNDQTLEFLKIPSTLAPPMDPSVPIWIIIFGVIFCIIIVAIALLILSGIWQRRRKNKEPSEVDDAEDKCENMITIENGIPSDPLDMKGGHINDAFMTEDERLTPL
Classes based on IC50: small value = under 400 nM, mid value = from 400 nM up to 2000 nM, large value = 2000 nM and over

Molecule | Target system | Group label
CC(=O)N1CCC[C@@H](N(C)C(=O)NCc2cc3cc(C#N)ccc3[nH]2)C1 | human SLC6A19 (Homo sapiens, UniProt Q695T7) | large value
CN(C(=O)NCc1cc2cc(Cl)ccc2[nH]1)[C@@H]1CCCN(C(=O)c2ccno2)C1 | human SLC6A19 (Homo sapiens, UniProt Q695T7) | small value
COC(C)(C)C(=O)N1CCC[C@@H](N(C)C(=O)NCc2cc3cc(Cl)ccc3[nH]2)C1 | human SLC6A19 (Homo sapiens, UniProt Q695T7) | large value
CC(=O)N1CCC[C@@H](N(C)C(=O)NCc2[nH]c3ccc(Cl)cc3c2Cl)C1 | human SLC6A19 (Homo sapiens, UniProt Q695T7) | small value
CN(C(=O)NCc1cc2cc(Cl)ccc2[nH]1)[C@@H]1CCCN(C(=O)C2CCCC2)C1 | human SLC6A19 (Homo sapiens, UniProt Q695T7) | small value
CN(C(=O)NCc1cc2cc(Cl)ccc2[nH]1)[C@@H]1CCCN(C(=O)c2ccon2)C1 | human SLC6A19 (Homo sapiens, UniProt Q695T7) | mid value
CN(C(=O)NCc1cc2cc(Cl)ccc2[nH]1)[C@@H]1CCCN(C(=O)C2(C)CC2)C1 | human SLC6A19 (Homo sapiens, UniProt Q695T7) | mid value
CN(C(=O)NCc1cc2cc(Cl)ccc2[nH]1)[C@@H]1CCCN(C(=O)[C@H]2C[C@H](O)C2)C1 | human SLC6A19 (Homo sapiens, UniProt Q695T7) | mid value
CN(C(=O)NCc1cc2cc(Cl)ccc2[nH]1)[C@@H]1CCCN(C(=O)c2ccccn2)C1 | human SLC6A19 (Homo sapiens, UniProt Q695T7) | mid value
CN(C(=O)NCc1cc2cc(Cl)ccc2[nH]1)[C@@H]1CCCN(C(=O)CN2CCOC2=O)C1 | human SLC6A19 (Homo sapiens, UniProt Q695T7) | large value
CN(C(=O)NCc1cc2cc(Cl)ccc2[nH]1)[C@@H]1CCCN(C(=O)c2cocn2)C1 | human SLC6A19 (Homo sapiens, UniProt Q695T7) | mid value
CN(C(=O)NCc1cc2cc(Cl)ccc2[nH]1)[C@@H]1CCCN(C(=O)C2CC(C)(O)C2)C1 (stereo partly shown) | human SLC6A19 (Homo sapiens, UniProt Q695T7) | mid value
CC(=O)N1CCC[C@@H](N(C)C(=O)NCc2cc3ccccc3[nH]2)C1 | human SLC6A19 (Homo sapiens, UniProt Q695T7) | mid value
CC(C(=O)N1CCC[C@@H](N(C)C(=O)NCc2cc3cc(Cl)ccc3[nH]2)C1)C1(O)CCC1 (stereo partly shown) | human SLC6A19 (Homo sapiens, UniProt Q695T7) | large value
Cc1cc(C(=O)N2CCC[C@@H](N(C)C(=O)NCc3cc4cc(Cl)ccc4[nH]3)C2)on1 | human SLC6A19 (Homo sapiens, UniProt Q695T7) | mid value
CC(O)C(=O)N1CCC[C@@H](N(C)C(=O)NCc2cc3cc(Cl)ccc3[nH]2)C1 (stereo partly shown) | human SLC6A19 (Homo sapiens, UniProt Q695T7) | small value
Cc1cc(C(=O)N2CCC[C@@H](N(C)C(=O)NCc3cc4cc(Cl)ccc4[nH]3)C2)n(C)n1 | human SLC6A19 (Homo sapiens, UniProt Q695T7) | large value
CN(C(=O)NCc1cc2cc(Cl)ccc2[nH]1)[C@@H]1CCCN(C(=O)c2ccc(O)cc2)C1 | human SLC6A19 (Homo sapiens, UniProt Q695T7) | small value
COCC(=O)N1CCC[C@@H](N(C)C(=O)NCc2cc3cc(Cl)ccc3[nH]2)C1 | human SLC6A19 (Homo sapiens, UniProt Q695T7) | mid value
CN(C(=O)NCc1cc2cc(Cl)ccc2[nH]1)[C@@H]1CCCN(C(=O)C2CCC2)C1 | human SLC6A19 (Homo sapiens, UniProt Q695T7) | small value
CC(=O)N1CCC[C@@H](N(C)C(=O)NCc2cc3cc(Cl)cc(CO)c3[nH]2)C1 | human SLC6A19 (Homo sapiens, UniProt Q695T7) | large value
Cc1cc(N2CCC[C@@H](N(C)C(=O)NCc3cc4cc(Cl)ccc4[nH]3)C2)no1 | human SLC6A19 (Homo sapiens, UniProt Q695T7) | small value
CN(C(=O)NCc1cc2cc(Cl)ccc2[nH]1)[C@@H]1CCCN(C(=O)c2ncc[nH]2)C1 | human SLC6A19 (Homo sapiens, UniProt Q695T7) | large value
CCN(C(=O)NCc1cc2cc(Cl)c(F)cc2[nH]1)[C@@H]1CCCN(C(C)=O)C1 | human SLC6A19 (Homo sapiens, UniProt Q695T7) | small value
CN(C(=O)NCc1cc2cc(Cl)ccc2[nH]1)[C@@H]1CCCN(C(=O)C2(C(F)(F)F)CC2)C1 | human SLC6A19 (Homo sapiens, UniProt Q695T7) | large value
CC(=O)N1CCC[C@@H](N(C)C(=O)NCc2cc3cc(Cl)c(Cl)cc3[nH]2)C1 | human SLC6A19 (Homo sapiens, UniProt Q695T7) | small value
CN(C(=O)NCc1cc2ccccc2[nH]1)C1CCCN(c2cccnn2)C1 (stereo not shown) | human SLC6A19 (Homo sapiens, UniProt Q695T7) | mid value
Cc1cc(C(=O)N2CCC[C@@H](N(C)C(=O)NCc3cc4cc(Cl)ccc4[nH]3)C2)[nH]n1 | human SLC6A19 (Homo sapiens, UniProt Q695T7) | mid value
CN(C(=O)NCc1cc2cc(Cl)ccc2[nH]1)[C@@H]1CCCN(C(=O)CN2CCCC2=O)C1 | human SLC6A19 (Homo sapiens, UniProt Q695T7) | large value
CN(C(=O)NCc1cc2cc(Cl)ccc2[nH]1)[C@@H]1CCCN(C(=O)C2CCC(=O)C2)C1 (stereo partly shown) | human SLC6A19 (Homo sapiens, UniProt Q695T7) | mid value
